System name: T1, human Galectin-3 (Gal3), full-length recombinant (human, UniProt P17931 2-250)
T1 construct: treated here as one molecule; also called hGAL3; hGal3
T1 sequence (P17931 2-250 limits assumed): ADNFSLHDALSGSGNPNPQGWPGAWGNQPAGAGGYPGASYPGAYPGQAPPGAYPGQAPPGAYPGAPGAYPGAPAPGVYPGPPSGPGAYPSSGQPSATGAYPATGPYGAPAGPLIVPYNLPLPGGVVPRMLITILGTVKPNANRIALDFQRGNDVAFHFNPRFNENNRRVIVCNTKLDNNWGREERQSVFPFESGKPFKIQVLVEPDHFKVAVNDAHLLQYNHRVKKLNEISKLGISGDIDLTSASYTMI
Assay text: blocking ELISA, Gal3 coated, PDGFR beta-Fc, antibody 20 µg/ml

Binder	% blocking of Gal3-PDGFR beta binding
6H6.2D6 (antibody, human IgG4 S228P, kappa, V domains shown) VH: QIQLVQSGPELKKPGETVKISCKASGYTFTTYGMSWVKQAPGKGLKWMAWINTYSGVPTYADDFKGRFAFSLETSASTAYLQINNLTNEDTATYFCARGPYAMDYWGQGTSVTVSS VL: DIQMTQTTSSLSASLGDRVTISCSASQGISNYLNWYQQKPDGTVKLLIYYTSSLHSGVPSRFSGSGSGTDYSLTISNLEPEDIATYYCQQYSELPYTFGSGTKLEIKR	> 70%
mTB001 (antibody, mouse IgG2a, V domains shown, also called mIMT001; murine IMT001) VH: QIQLVQSGPELKKPGETVKISCKASGYTFTNYGMNWVKQAPGKGLKWMGWINTNTGEPTYVEEFKGRFAFSLETSASTAYLQINNLKNEDTATYFCAPYDNFFAYWGQGTLVTVSA VL: DIVITQDELSNPVTSGESVSISCRSSKSLLYKDGKTYLNWFLQRPGQSPQLLIYLMSTHASGVSDRFSGSGSGTDFTLEISRVKAEDVGVYYCQQLVDYPLTFGAGTKLELKR	> 70%
24D12.2H9 (antibody, human IgG4 S228P, kappa, V domains shown) VH: QVQLKQSGPGLVQPSQSLSITCTVSGFSLTSYGVHWVRQAPGKGLEWLGVIWSGGSTDYNAAFMSRLSISKDNSKSQVFFKMNSLQADDTAIYYCAKSPDGYDVAWFGYWGQGTLVTVSA VL: DIVMTQSHKFMSTSVGDRVSITCKASQDVRTAVAWYQQKPGQSPKLLIYWASTRHTGVPDRFTGSGSGTDFTLTLSNVQSEDLADYFCQQYSSYPWTFGGGTKLEIKR	< 30%
